Origin of the recorded values: patent US4451650A

Tested on: lymphoid leukemia L1210 cells
Assay: Mitotic index (fraction of cells in mitosis) of cultured lymphoid leukemia L1210 cells, 12 hours exposure
Assay type: cell-based
Conditions: Mus musculus, exposure period of 12 hours, read-out: L1210 MI0.5 (concentration of agent that causes a mitotic index of 0.5)
Checkbox rule: EC (mitotic index 0.5) lower than 0.8 µM = YES; EC (mitotic index 0.5) not lower than 0.8 µM = NO.

Please review the entries below; each comes with its answer.
molecule="CCOC(=O)Nc1cc2c(c(N)n1)N=C(c1ccccc1)C(C)S2 (centres unmarked)" system="lymphoid leukemia L1210 cells" class_assignment=NO
molecule=CCOC(=O)Nc1cc2c(c(N)n1)N=C(c1ccc3ccccc3c1)CS2 system="lymphoid leukemia L1210 cells" class_assignment=NO
molecule=CCOC(=O)Nc1cc2c(c(NC(=O)CBr)n1)N=C(c1ccccc1)CO2 system="lymphoid leukemia L1210 cells" class_assignment=NO
molecule=CCOC(=O)Nc1cc2c(c(N)n1)N=C(c1ccccc1)CO2 system="lymphoid leukemia L1210 cells" class_assignment=YES
molecule=CCOC(=O)Nc1cc2c(c(N)n1)N=C(c1ccccc1)CS2 system="lymphoid leukemia L1210 cells" class_assignment=NO

Query :: Is the reported EC (mitotic index 0.5) for CCOC(=O)Nc1cc2c(c(N)n1)N=C(c1ccccc1)C(C)O2 (centres unmarked) strictly below 0.8 µM?
Result :: YES

Query :: Moving on to the next molecule: "CCOC(=O)Nc1cc2c(c(N)n1)N=C(c1ccc(OC)cc1)CS2"
Result :: NO

Query :: Please answer likewise for "CCOC(=O)Nc1cc2c(c(N)n1)N=C(c1cccc(OC)c1)CO2"
Result :: YES

Query :: Same question for "CCOC(=O)Nc1cc2c(c(N)n1)N=C(c1cccc(OC)c1)CS2" please.
Result :: NO

Query :: Field entry: CCOC(=O)Nc1cc2c(c(N)n1)N=C(c1ccccc1)C(c1ccccc1)O2 (centres unmarked)
Result :: NO
